These measurements were taken from paper PMC9482650.

target: LNX1_2, Q8TBB1; assay: holdup assay; design: key: below the threshold = too weak to quantify, mostly under pKd 3.1 to 4; conditions: plain residues with an end cap or a label only (N-terminal biotin on a linker: ado-ado)
Sequence (Q8TBB1 371-470): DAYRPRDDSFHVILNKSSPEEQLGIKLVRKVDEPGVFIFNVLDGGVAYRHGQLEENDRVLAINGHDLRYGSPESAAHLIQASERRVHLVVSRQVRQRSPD
Measure name: pKd

{"Binder": "RRISSLESEV [GRIN2C, Q14957]", "Measured": "below the threshold"}
{"Binder": "SSALYGESDL [ACTN2, P35609]", "Measured": "below the threshold"}
{"Binder": "SAKVRTVTSV [RASL11B, Q9BPW5]", "Measured": 3.92}
{"Binder": "VNKSKLLTDV [KCNA1, Q09470]", "Measured": "below the threshold"}
{"Binder": "DDENIRTSDV [PLEKHA2, Q9HB19]", "Measured": "below the threshold"}

# per-item lookup of pKd; items listed below
1. LKVPPEERLI [CRB2, Q5IJ48]
2. EKKTLIGIKL [GOT1L1, Q8NHS2]
3. FNSYSLTGYV [CLDN2, P57739]
4. LPHPHSTTRV [NLGN2, Q8NFZ4]
5. SKENVQETQI [LRRC4B, Q9NT99]
6. LPAHHNATRL [SLC34A1, Q06495;Q06495-1]
7. GNSVLKSTQF [SLC22A12, Q96S37]

Response given:
below the threshold
below the threshold
4.19
below the threshold
below the threshold
below the threshold
below the threshold

# per-item lookup of pKd; items listed below
1. PKRSFIESNV [TANC1, Q9C0D5]
2. SARSRLSSNL [HCN2, Q9UL51]
3. PAPSSGKDYV [CLDN1, O95832]
4. GQEEQVTTRL [TRPC5, Q9UL62]
5. PPYRHRNTVV [ERBB4, Q15303]

Response given:
1: below the threshold; 2: below the threshold; 3: below the threshold; 4: below the threshold; 5: 3.54
